System: N. gonorrhoeae MS11
Experiment: Liquid broth MIC in Fastidious broth
Conditions: Neisseria gonorrhoeae, MS11, read-out: Minimum Inhibitory Concentration (MIC), N. gonorrhoeae MS11
measuredAttribute: MIC

Below are worked cases with known answers.
Please give the documented MIC of CS(=O)(=O)N1CCN(C(=O)N[C@@H](C(=O)N[C@H]2Cc3cccc(C(=O)O)c3OB2O)c2cc(F)c(P(=O)(O)O)c(F)c2)C1=O (single isomer, unassigned) [Example 18]
< 1 µg/mL

Retrieve MIC measured for O=C(NCCCN1CCN(C(=O)NC(C(=O)N[C@H]2Cc3ccc(F)c(C(=O)O)c3OB2O)c2cc(F)c(O)c(O)c2Cl)C(=O)C1=O)c1cccc(O)c1 (some centres unmarked) [Example 204] and print it.
16 to 32 µg/mL

// fetch MIC given entry O=C(CN1CCN(C(=O)NC(C(=O)N[C@H]2Cc3ccc(F)c(C(=O)O)c3OB2O)c2cc(F)c(O)c(O)c2Cl)C(=O)C1=O)NCc1cccc(O)c1 (some centres unmarked) [Example 237]
16 to 32 µg/mL

Item CN(CCN1CCN(C(=O)N[C@@H](C(=O)N[C@H]2Cc3ccc(F)c(C(=O)O)c3OB2O)c2cc(F)c(O)c(O)c2Cl)C(=O)C1=O)Cc1cccc(C(N)=O)c1 [Example 225] : provide MIC
16 to 32 µg/mL

Turning now to a further record.
Give MIC for O=C(NCCN1CCN(C(=O)NC(C(=O)N[C@H]2Cc3ccc(F)c(C(=O)O)c3OB2O)c2cc(F)c(O)c(O)c2Cl)C(=O)C1=O)c1ccccc1 (some centres unmarked) [Example 207]
16 to 32 µg/mL

* * *

Tested on: P. aeruginosa CDC-0095
Assay: microbe, parasite or virus in culture
Format: cell-based
Settings: Pseudomonas aeruginosa, CDC0095, read-out: Minimum inhibitory concentration, P. aeruginosa CDC-0095
measuredAttribute: MIC

Could you please provide reported MIC for O=C(NCCCN1CCN(C(=O)NC(C(=O)N[C@H]2Cc3ccc(F)c(C(=O)O)c3OB2O)c2cc(F)c(O)c(O)c2Cl)C1=O)c1ccc(O)cc1 (stereo partly drawn) ? Thanks!
8 to 16 µg/mL

Fill in reported MIC for this entry: O=C(CN1CCN(C(=O)NC(C(=O)N[C@H]2Cc3ccc(F)c(C(=O)O)c3OB2O)c2cc(F)c(O)c(O)c2Cl)C(=O)C1=O)NCc1cccc(O)c1 (stereo partly drawn)
2 to 4 µg/mL

In one line, give reported MIC of the entry O=C(O)c1c(F)ccc2c1OB(O)[C@@H](NC(=O)[C@H](NC(=O)N1CCN(C3CCN(C(=O)c4cccc(O)c4Cl)CC3)C1=O)c1cc(F)c(O)c(O)c1Cl)C2 (single isomer, unassigned) .
< 1 µg/mL

Give the value of MIC reported for the following: O=C(O)c1c(F)ccc2c1OB(O)[C@@H](NC(=O)C(NC(=O)N1CCN(C3CCN(C(=O)c4c(F)ccc(O)c4F)CC3)C(=O)C1=O)c1cc(F)c(O)c(O)c1Cl)C2 (stereo partly drawn)
2 to 4 µg/mL

Please go through the list and note MIC for each compound.
1. O=C(NCCCN1CCN(C(=O)N[C@@H](C(=O)N[C@H]2Cc3ccc(F)c(C(=O)O)c3OB2O)c2cc(F)c(O)c(O)c2Cl)C1=O)Nc1ccc(O)cc1
2. O=C(NCCN1CCN(C(=O)NC(C(=O)N[C@H]2Cc3ccc(F)c(C(=O)O)c3OB2O)c2cc(F)c(O)c(O)c2Cl)C1=O)c1ccccc1 (stereo partly drawn)

< 1 µg/mL
2 to 4 µg/mL

List the reported MIC of each compound below.
1. O=C(O)c1c(F)ccc2c1OB(O)[C@@H](NC(=O)[C@H](NC(=O)N1CCN(C3CCN(C(=O)c4cc(O)cc(O)c4)CC3)C1=O)c1cc(F)c(O)c(O)c1Cl)C2 (single isomer, unassigned)
2. O=C(CN1CCN(C(=O)NC(C(=O)N[C@H]2Cc3ccc(F)c(C(=O)O)c3OB2O)c2cc(F)c(O)c(O)c2Cl)C(=O)C1=O)Nc1ccccc1 (stereo partly drawn)
3. O=C(O)c1c(F)ccc2c1OB(O)[C@@H](NC(=O)[C@H](NC(=O)N1CCN(C3CCN(C(=O)Nc4cccc(O)c4Cl)CC3)C1=O)c1cc(F)c(O)c(O)c1Cl)C2
4. O=C(N[C@@H](C(=O)N[C@H]1Cc2cccc(C(=O)O)c2OB1O)c1ccc(P(=O)(O)O)cc1)c1ccc(O)c(O)c1Cl
5. O=C(O)c1c(F)ccc2c1OB(O)[C@@H](NC(=O)C(NC(=O)N1CCN(C3CCN(C(=O)Nc4ccc(F)c(O)c4F)CC3)C1=O)c1cc(F)c(O)c(O)c1Cl)C2 (stereo partly drawn)
6. CN(CCN1CCN(C(=O)N[C@@H](C(=O)N[C@H]2Cc3ccc(F)c(C(=O)O)c3OB2O)c2cc(F)c(O)c(O)c2Cl)C(=O)C1=O)Cc1cccc(C(N)=O)c1
7. O=C(O)c1c(F)ccc2c1OB(O)[C@@H](NC(=O)C(NC(=O)N1CCN(C3CCN(C(=O)Nc4c(F)ccc(O)c4F)CC3)C(=O)C1=O)c1cc(F)c(O)c(O)c1Cl)C2 (stereo partly drawn)

1. < 1 µg/mL
2. 2 to 4 µg/mL
3. < 1 µg/mL
4. < 1 µg/mL
5. 2 to 4 µg/mL
6. 2 to 4 µg/mL
7. < 1 µg/mL

Below are 8 compounds. Give each one its MIC.
1. O=C(O)c1c(F)ccc2c1OB(O)[C@@H](NC(=O)C(NC(=O)N1CCN(CC3CCN(C(=O)c4cccc(O)c4)CC3)C(=O)C1=O)c1cc(F)c(O)c(O)c1Cl)C2 (stereo partly drawn)
2. O=C(NCCCS(=O)(=O)N1CCN(C(=O)NC(C(=O)N[C@H]2Cc3ccc(F)c(C(=O)O)c3OB2O)c2cc(F)c(O)c(O)c2Cl)C1=O)Nc1ccc(O)cc1 (stereo partly drawn)
3. O=C(NCCCN1CCN(C(=O)NC(C(=O)N[C@H]2Cc3ccc(F)c(C(=O)O)c3OB2O)c2cc(F)c(O)c(O)c2Cl)C(=O)C1=O)c1ccnc(F)c1 (stereo partly drawn)
4. O=C(NCCS(=O)(=O)N1CCN(C(=O)N[C@H](C(=O)N[C@H]2Cc3ccc(F)c(C(=O)O)c3OB2O)c2cc(F)c(O)c(O)c2Cl)C1=O)c1ccc(O)cc1
5. O=C(O)c1c(F)ccc2c1OB(O)[C@@H](NC(=O)[C@@H](NC(=O)N1CCN(Cc3ccc(O)c(O)c3Cl)C(=O)C1=O)c1ccc(P(=O)(O)O)c(F)c1F)C2
6. O=C(NCCS(=O)(=O)N1CCN(C(=O)N[C@@H](C(=O)N[C@H]2Cc3ccc(F)c(C(=O)O)c3OB2O)c2cc(F)c(O)c(O)c2Cl)C1=O)Nc1ccncc1
7. O=C(O)c1c(F)ccc2c1OB(O)[C@@H](NC(=O)[C@H](NC(=O)N1CCN(Cc3ccc(O)c(O)c3Cl)C(=O)C1=O)c1ccc(P(=O)(O)O)c(F)c1F)C2
8. O=C(O)c1c(F)ccc2c1OB(O)[C@@H](NC(=O)C(NC(=O)N1CCN(Cc3ccc(O)c(O)c3Cl)C(=O)C1=O)c1ccc(P(=O)(O)O)cc1)C2 (stereo partly drawn)

["< 1 µg/mL", "8 to 16 µg/mL", "2 to 4 µg/mL", "> 128 µg/mL", "< 1 µg/mL", "2 to 4 µg/mL", "< 1 µg/mL", "< 1 µg/mL"]

* * *

Target: UniProt A0ABX6CK30
Sequence (A0ABX6CK30 1-851): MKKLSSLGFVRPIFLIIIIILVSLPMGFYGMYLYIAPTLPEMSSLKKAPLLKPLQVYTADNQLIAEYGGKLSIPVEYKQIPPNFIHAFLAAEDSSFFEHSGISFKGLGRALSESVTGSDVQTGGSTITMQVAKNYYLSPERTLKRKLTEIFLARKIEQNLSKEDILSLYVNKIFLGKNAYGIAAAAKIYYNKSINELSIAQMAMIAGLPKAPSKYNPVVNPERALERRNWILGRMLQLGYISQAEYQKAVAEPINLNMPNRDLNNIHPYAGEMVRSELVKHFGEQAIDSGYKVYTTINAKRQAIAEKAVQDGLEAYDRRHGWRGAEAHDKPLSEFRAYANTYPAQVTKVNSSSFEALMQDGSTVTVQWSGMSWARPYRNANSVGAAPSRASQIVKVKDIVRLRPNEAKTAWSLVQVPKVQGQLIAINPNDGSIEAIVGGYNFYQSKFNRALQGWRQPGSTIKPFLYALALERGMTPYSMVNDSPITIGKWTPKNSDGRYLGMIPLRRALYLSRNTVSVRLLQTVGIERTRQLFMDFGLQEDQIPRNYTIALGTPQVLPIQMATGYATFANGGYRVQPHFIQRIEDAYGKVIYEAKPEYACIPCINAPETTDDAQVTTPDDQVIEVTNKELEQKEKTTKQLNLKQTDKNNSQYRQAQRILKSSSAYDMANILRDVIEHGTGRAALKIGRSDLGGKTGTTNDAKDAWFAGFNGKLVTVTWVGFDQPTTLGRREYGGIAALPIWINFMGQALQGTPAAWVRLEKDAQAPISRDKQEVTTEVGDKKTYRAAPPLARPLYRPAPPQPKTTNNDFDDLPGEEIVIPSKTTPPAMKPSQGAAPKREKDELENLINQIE
Assay: Bocillin-FL competition binding via gel filtration, A. baumannii PBP1a
Conditions: competition binding assay using Bocillin-FL via gel filtration; read-out: A. baumannii PBP1a Potency
pEC50: −log10 of the molar value.
measuredAttribute: pEC50

Guide cases for pEC50, answers given:
Item O=C(O)c1c(F)ccc2c1OB(O)[C@@H](NC(=O)C(NC(=O)N1CCN(C3CCN(S(=O)(=O)c4cc(O)cc(O)c4)CC3)C1=O)c1cc(F)c(O)c(O)c1Cl)C2 (some centres unmarked) [Example 600] : provide pEC50
> 5.00

Query pEC50 for O=C(O)c1c(F)ccc2c1OB(O)[C@@H](NC(=O)C(NC(=O)N1CCN(C3CCN(C(=O)c4c(F)ccc(O)c4F)CC3)C(=O)C1=O)c1cc(F)c(O)c(O)c1Cl)C2 (some centres unmarked) [Example 308]
4.30 to 5.00

Report pEC50 for O=C(NCCCN1CCN(C(=O)NC(C(=O)N[C@H]2Cc3ccc(F)c(C(=O)O)c3OB2O)c2cc(F)c(O)c(O)c2Cl)C(=O)C1=O)c1ccc(O)c(F)c1Cl (some centres unmarked) [Example 418]
> 5.00

Fill in pEC50 for record O=C(NCCCN1CCN(C(=O)N[C@@H](C(=O)N[C@H]2Cc3ccc(F)c(C(=O)O)c3OB2O)c2cc(F)c(O)c(O)c2Cl)C(=O)C1=O)c1ccncc1O [Example 296]
> 5.00

Then this compound:
Specify reported pEC50 for the compound shown: O=C(O)c1c(F)ccc2c1OB(O)[C@@H](NC(=O)C(NC(=O)N1CCN(Cc3cc(F)c(O)c(O)c3Cl)C(=O)C1=O)c1ccc(P(=O)(O)O)cc1)C2 (some centres unmarked) [Example 45]
4.30 to 5.00
